# System name: T1, CRBN, Q96SW2;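 further: pooled lentiviral library of zinc finger degron-EGFP fusions in mCherry-positive Jurkat cells, FACS-sorted after compound exposure, with degron abundance counted by next-generation sequencing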
# T1 chain: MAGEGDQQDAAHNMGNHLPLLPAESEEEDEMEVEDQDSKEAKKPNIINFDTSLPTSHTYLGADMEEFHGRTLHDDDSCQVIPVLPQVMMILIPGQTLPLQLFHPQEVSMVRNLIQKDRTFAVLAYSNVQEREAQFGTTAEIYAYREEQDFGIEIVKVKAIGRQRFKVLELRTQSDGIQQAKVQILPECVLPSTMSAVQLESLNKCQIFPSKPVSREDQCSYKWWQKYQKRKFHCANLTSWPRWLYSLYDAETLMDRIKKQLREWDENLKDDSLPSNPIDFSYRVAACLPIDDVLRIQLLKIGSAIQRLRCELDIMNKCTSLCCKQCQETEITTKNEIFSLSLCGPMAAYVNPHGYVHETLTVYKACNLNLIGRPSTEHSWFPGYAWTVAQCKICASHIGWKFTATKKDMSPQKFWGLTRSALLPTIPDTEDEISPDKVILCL
# Method notes: log2 fold change of degron read counts, EGFP-low vs EGFP+ sorted cells (limma voom), compound-induced degradation; higher = more compound-induced degradation of the degron-EGFP fusion; degrons are variants of IKZF1/3 zinc finger 2; compound dose not given here
# Applied conditions: Jurkat; 18 h; compound: thalidomide
Whole data set: some 8,300 sequences, median “log2 fold change of degron read counts, EGFP-low vs EGFP+ sorted cells (limma voom), compound-induced degradation” near -1.1, cut for the highest 2% near 3.2. The full list was thinned out, with the highest values kept by preference.
Reported property: log2 fold change of degron read counts
One number for each entry.

The cases that follow already have their log2 fold change of degron read counts on record.
{"columns": ["Construct sequence", "Measured result"],
 "data": [
  ["FLCEICGAAFTQKGNLLRHIKL [46F_47L_49E_50I_52G_53A_54A_55F_67L_, Q9UKT9]", 1.59],
  ["FHCEICGAAFTQKGNLLRHIKL [46F_47H_49E_50I_52G_53A_54A_55F_67L_, Q9UKT9]", 0.773]
]}

Here are 4 sequences. What values of log2 fold change of degron read counts were reported for them?
1. FFCEICGAAFTQKGNLLRHIKL [46F_47F_49E_50I_52G_53A_54A_55F_67L_, Q9UKT9]
2. FCCNQCGREFTQKGNLLRHIKL [46F_47C_49N_50Q_52G_53R_54E_55F_67L_, Q9UKT9]
3. FDCEICGAAFTQKGNLLRHIKL [46F_47D_49E_50I_52G_53A_54A_55F_67L_, Q9UKT9]
4. FECEICGAAFTQKGNLLRHIKL [46F_47E_49E_50I_52G_53A_54A_55F_67L_, Q9UKT9]

Result block:
1. 1.87
2. -3.5
3. 1.38
4. 2.53

Query block: Could you please provide reported log2 fold change of degron read counts for FMCEICGAAFTQKGNLLRHIKL [46F_47M_49E_50I_52G_53A_54A_55F_67L_, Q9UKT9] ? Thanks!
Result block: 2.46
